So I've got a bunch of molecules here, and I need their IC50 values.
# test_target: human S1P1 receptors (Homo sapiens)
# Construct: myc (N)
# Sequence (P21453 whole entry): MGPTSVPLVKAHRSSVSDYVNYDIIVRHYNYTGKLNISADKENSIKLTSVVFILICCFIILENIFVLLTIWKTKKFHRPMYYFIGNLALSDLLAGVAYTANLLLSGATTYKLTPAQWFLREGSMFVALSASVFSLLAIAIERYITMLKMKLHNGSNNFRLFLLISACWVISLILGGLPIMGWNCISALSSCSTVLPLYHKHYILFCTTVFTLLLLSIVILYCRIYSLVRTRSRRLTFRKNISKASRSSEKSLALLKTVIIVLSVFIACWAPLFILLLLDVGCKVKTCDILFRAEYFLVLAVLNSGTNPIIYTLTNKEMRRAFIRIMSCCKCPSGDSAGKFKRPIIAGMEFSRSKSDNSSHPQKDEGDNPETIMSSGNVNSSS
# assay_name: Human S1P1 Receptor Calcium FLIPR Antagonist Assay (HeLa Gα16 S1P1)
# measurement_conditions: relative antagonism of Ca2+ signal evoked by probing agonist GNF-AC-1 at EC80; HeLa-S1P1/Gα16 cells

Cc1cc(C(C)Nc2cccc(-c3cc(C)c(C(=O)NCC(=O)O)c(C)c3)c2)ccc1Cl (stereo not shown) [Example 68] ... 1 nM
Cc1cc(-c2cccc(NC(C)c3ccc(Cl)c(Cl)c3)c2)ccc1C(=O)N(C)[C@@H](C)C(=O)O (stereo partly shown) [Example 78] ... 7 nM
CC[C@@H](Nc1cccc(-c2cc(C)c(C(=O)N(C)[C@@H](C)C(=O)O)c(C)c2)c1)c1ccc(Cl)c(C)c1 [Example 107] ... 1 nM

// moving on: another record for IC50
Note down IC50 recorded for Cc1cc(C(C)Nc2ccc(F)c(-c3cc(C)c(C(=O)N[C@@H](C)C(=O)O)c(C)c3)c2)ccc1Cl (stereo partly shown) [Example 22]
2 nM

###

So I've got a bunch of compounds here, and I need their pIC50 values.
# test_target: human S1P1 receptors (Homo sapiens)
# Construct: myc (N)
# assay_name: Human S1P1 Receptor Calcium FLIPR Antagonist Assay (HeLa Gα16 S1P1)
# measurement_conditions: relative antagonism of Ca2+ signal evoked by probing agonist GNF-AC-1 at EC80; HeLa-S1P1/Gα16 cells
Numbers only, as −log10 of the molar value.

CC[C@@H](Nc1cccc(-c2cc(C)c(C(=O)NC3(C(=O)O)CC3)c(C)c2)c1)c1ccc(Cl)c(C)c1 [Example 109] ... 8.70
Cc1cc(C(C)Nc2cccc(-c3ccc(C(=O)N[C@@H](C)C(=O)O)c(C(F)(F)F)c3)c2)ccc1Cl (stereo partly shown) [Example 62] ... 9.00
CCC(Nc1cccc(-c2cc(C)c(C(=O)NC3(C(=O)O)CC3)c(C)c2)c1)c1ccc(Cl)c(C)c1 (stereo not shown) [Example 27] ... 8.70

// moving on: another record for pIC50
Note down pIC50 recorded for Cc1cc(C(C)(C)Nc2cccc(-c3cc(C)c(C(=O)N[C@@H](C)C(=O)O)c(C)c3)c2)ccc1Cl [Example 82]
8.52
